Tested on: TO-3-N3 (biotin conjugate)
Test protocol: pull-down binding Z-score (relative to library population); higher = stronger binding
Cond: RNA library: Library-2
Grouping by measured pull-down binding Z-score is done with the following cut points: low (below -0.5), moderate (-0.5 to below 0.03), high (0.03 or more)

[Q] Which class holds UUUUUGCAUUACGUUCUAUGGCAAAA [hsa-mir-548g] ?
[A] moderate

[Q] Which class holds GCGCUGCCAGAAACUGGCGGGAGCGC [bulge-GGG] ?
[A] high

[Q] Which class holds CACUCCCGUGCUUGUCCGAGGAGGGAGG [hsa-mir-149] ?
[A] high

[Q] Which class holds UAUUUGCCUAUAGAUA ?
[A] moderate

[Q] Which class holds AUUCUGGAGUCCAUCUAGAG [hsa-mir-1182] ?
[A] low

[Q] Which class holds GCAGCAAUAUGC [IAV_invivo_PA_3_Motif_2+IAV_invivo_PA_3_Motif_2] ?
[A] high

[Q] Which class holds UGGGCACACUUUCUUAUGAACAAUUUAAGAAAGGUGUUCA [SHAPE_invivo_SARS-CoV-2_Motif_116] ?
[A] moderate

[Q] Which class holds CUCCUCCGCUGCCGCCGGGAGAG [hsa-mir-4785] ?
[A] low

[Q] Which class holds CAAAACUCCGUACAUUGCUAUUUUGC [hsa-mir-3064] ?
[A] low

[Q] Which class holds CCCCAAAAGAAAUUAUCUUCUUAGAGGG ?
[A] moderate
